# assay-target: T1, corticotropin releasing factor 2 receptor
# T1 sequence (Q13324 whole entry, species assumed, looked up): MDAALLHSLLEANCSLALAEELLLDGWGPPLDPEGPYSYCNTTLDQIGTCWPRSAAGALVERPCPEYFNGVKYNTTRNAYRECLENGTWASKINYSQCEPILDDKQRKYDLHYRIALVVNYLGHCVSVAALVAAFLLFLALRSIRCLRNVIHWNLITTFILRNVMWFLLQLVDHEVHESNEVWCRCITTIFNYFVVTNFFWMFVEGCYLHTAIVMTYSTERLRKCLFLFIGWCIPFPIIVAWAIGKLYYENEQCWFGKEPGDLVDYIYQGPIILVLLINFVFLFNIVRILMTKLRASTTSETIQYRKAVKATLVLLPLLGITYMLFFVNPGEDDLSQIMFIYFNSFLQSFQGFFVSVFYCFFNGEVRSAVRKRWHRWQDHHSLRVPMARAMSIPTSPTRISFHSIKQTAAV
# test-summary: cell-based or functional assay
Ends that are not written are not given here.
observed-property: CRF2R EC50 (nM)
Hi! Could you send only the number? It should be in nM, unit omitted.

binder="IVLSLDVPIGLLQILLEQAKQEAAREQATTNARILARV-NH2 [SEQ ID NO 124]" observed_value=3.49

Which CRF2R EC50 value is on record for IVLSLDVPIGLLQILLEQRARAAREQATTNARILARV-NH2 [SEQ ID NO 137] ?
36.9

Next binder: ZGPPISIDLPYQLLRKMIEIEKQEKEKQQAANNRLLLDTI (C-terminal amide) [SEQ ID NO 202]
8.7
